Each entry below lists one item and its recorded MIC value.
Test system: S. aureus strain RN4220
Assay: microbe, parasite or virus in culture
Type: cell-based
Details: Staphylococcus aureus, RN4220, read-out: MIC S. aureus RN4220 WT

molecule="CC(=O)Nc1ccc(CC(=O)N2CCC(c3nccs3)C2)cc1 (centres unmarked)" observed_result="> 200 µg/mL"
molecule="O=C(Cc1cccc(F)c1F)N1CCC(c2ccc3c(c2)OCO3)C1 (centres unmarked)" observed_result="100 µg/mL"
molecule="O=C(Cc1c(F)cccc1Cl)N1CCC(c2ccc3c(c2)OCO3)C1 (centres unmarked)" observed_result="25 µg/mL"
molecule="O=C(Cc1c(F)cccc1F)N1CCC(c2ccc3c(c2)OCO3)C1 (centres unmarked)" observed_result="> 200 µg/mL"
molecule="O=C(Cc1ccccc1Cl)N1CCC(c2ccc3c(c2)OCO3)C1 (centres unmarked)" observed_result="12.5 µg/mL"

I am curious: what MIC value has been reported for O=C(Cc1cccc(F)c1F)N1CCC(c2ccccc2)C1 (centres unmarked) ? 50 µg/mL

Could you do the same for CC(=O)Nc1ccc(/C=C/C(=O)N2CCC(c3ccccc3)C2)cn1 (centres unmarked) , please? > 200 µg/mL

Could you do the same for COc1ccc(C2CCN(C(=O)Cc3ccccc3Cl)C2)cc1 (centres unmarked) , please? 100 µg/mL

Could you do the same for COc1ccccc1C1CCN(C(=O)Cc2c(F)cccc2F)C1 (centres unmarked) , please? 50 to 100 µg/mL

====

Biological target: UniProtKB A0ABX6CD96
Assay: biochemical
Type: biochemical
Settings: pH 5.5; read-out: Enzyme inhibition or IC50 with AbFabl
pIC50: −log10 of the molar value.
// false strictly below 5 in pIC50; true otherwise

compound="O=C(Cc1c(F)cccc1F)N1CCC(c2ccc3c(c2)OCO3)C1 (centres unmarked)" class=false
compound="O=C(Cc1ccccc1Cl)N1CCC(c2ccccn2)C1 (centres unmarked)" class=false
compound="CC(=O)Nc1ccc(/C=C/C(=O)N2CCC(c3ccccc3)C2)cn1 (centres unmarked)" class=true

Does the reported pIC50 for COc1ccccc1C1CCN(C(=O)/C=C/c2ccc(NC(C)=O)nc2)C1 (centres unmarked) fall at or above the 5 mark? true

Could you do the same for O=C(Cc1ccccc1Cl)N1CCC(c2ccccc2)C1 (centres unmarked) , please? true

Could you do the same for O=C(Cc1ccccc1F)N1CCC(c2ccc3c(c2)OCO3)C1 (centres unmarked) , please? false

====

Biological target: Staphylococcus aureus FabI (SaFabI) (Staphylococcus aureus, UniProt Q6GI75)
Sequence (Q6GI75 1-256): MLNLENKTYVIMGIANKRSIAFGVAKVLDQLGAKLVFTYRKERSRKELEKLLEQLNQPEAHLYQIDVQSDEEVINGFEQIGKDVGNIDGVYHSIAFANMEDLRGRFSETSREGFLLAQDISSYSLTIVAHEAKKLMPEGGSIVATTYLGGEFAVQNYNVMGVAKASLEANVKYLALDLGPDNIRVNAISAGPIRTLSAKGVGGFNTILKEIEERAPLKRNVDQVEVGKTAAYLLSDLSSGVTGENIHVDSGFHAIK
Assay: biochemical
Assay type: biochemical
Details: 200 nM enzyme, 300 μM crotonyl-coenzymeA, 200 μM NADPH, pH 5.5; read-out: Enzyme inhibition or IC50 with SaFabl
Each entry below lists one item and its recorded pIC50 value.
pIC50 is a log-scale quantity: -log10 of the concentration expressed in molar.

Example entries and their recorded answers appear below.
compound="O=C(Cc1ccccc1Cl)N1CCC(c2ccccc2)C1 (stereo not drawn)" observed_result=4.97
compound="CC(=O)Nc1ccc(/C=C/C(=O)N2CCC(c3ccccc3)C2)cn1 (stereo not drawn)" observed_result=5.92
compound="COc1ccccc1C1CCN(C(=O)Cc2ccccc2Cl)C1 (stereo not drawn)" observed_result=6.30
compound="COc1ccccc1C1CCN(C(=O)Cc2c(F)cccc2F)C1 (stereo not drawn)" observed_result=5.24
compound="O=C(Cc1c(F)cccc1F)N1CCC(c2ccccc2)C1 (stereo not drawn)" observed_result=5.72

Here's the next entry for you.
I am curious: what pIC50 value has been reported for COc1ccccc1C1CCN(C(=O)Cc2cccc(F)c2F)C1 (stereo not drawn) ? 5.52

// data source = patent US20180072666A1
